target: T1, human SIRP-α v1 D1 domain (human, UniProt P78324 31-149); test: SPR, Langmuir fit
T1 construct: also called human v1
T1 sequence (P78324 31-149 limits assumed): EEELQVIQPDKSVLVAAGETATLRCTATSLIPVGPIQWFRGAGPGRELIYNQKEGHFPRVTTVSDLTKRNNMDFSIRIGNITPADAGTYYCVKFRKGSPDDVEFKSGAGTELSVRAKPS
quantity name: koff

binder="S218 (scFv, V domains shown, scFv-Fc format (VL-linker-VH on human IgG1 Fc)) VH: DVQLVESGGGVVRPGESLTLSCTASGFTFTSSTMNWVRQAPGEGLDWVSSISTSGVITYYADSVKGRATISRDNSKNTLYLRLFSLRADDTAIYYCATDTFDHWGPGTLVTVSS VL: ALTQPASVSANPGETVKITCFGSSGNYGWFQQKSPGSAPVTVIHYNNKRPSDIPSRFSGSKSGSTGTLTITGVRAEDEAVYFCGAWETGSATFGAGTTLTVL" value="7.06e-05 s⁻¹"
binder="S55 (scFv, V domains shown, also called clone 55) VH: DVQLVESGGGVVRPGESLRLSCAVSGFRFSSYAMSWVRQAPGKGLEWVSGISSGGDTYYVDSVKGRFTISRDNSKNTLYLQVNSLTAEDTAIYYCARETWNHLFDYWGLGTLVTVSS VL: ALTQPASVSANLGETVEITCSGGDSSSHYYGWYQQKSPGSAPVTVIYSDDERPSDIPSRFSGSASGSTATLTITGVRVEDEAIYYCGAYDGSTYANTFGAGTTLTVL" value="4.18e-05 s⁻¹"
binder="S59 (scFv, V domains shown, also called clone 59) VH: DVQLVESGGGVVRPGESLRLSCAVSGFRFSSHAMSWVRQAPGKGLEWVSGISSGGDTYYVDSVKGRFTISRDNSKNTLYLQVNSLTAEDTAIYYCARETWNHLFDYWGLGTLVTVSS VL: ALTQPASVSANLGETVKITCSGGDSSSHYYGWYQQKSPGSAPVTVIYSDDERPSDIPSRFSGSASGSTATLTITGVRVEDEAIYYCGAYDGSTYANTFGAGTTLTVL" value="4.98e-05 s⁻¹"
